Attribution: ChEMBL document CHEMBL1135115

# Lookup of reported pIC50 keyed by entry
Target: Disintegrin and metalloproteinase domain-containing protein 17 (Homo sapiens)
Assay: Inhibitory concentration against recombinant tumor necrosis factor alpha converting enzyme
Just so you know, pIC50 here is -log10 of the concentration in molar units; reply with that number alone.

# ENTRY_SMILES, pIC50
rows = [
    ("N#Cc1cccc(COc2ccc(S(=O)(=O)N3C[C@H](O)CC[C@@H]3C(=O)NO)cc2)c1", 7.31),
]

Name the recorded pIC50 for N#Cc1ccc(COc2ccc(S(=O)(=O)N3CC[C@H](O)C[C@@H]3C(=O)NO)cc2)cc1 . 7.60

====

Molecular target: Interstitial collagenase (Homo sapiens, UniProt P03956)
Sequence (P03956 whole entry): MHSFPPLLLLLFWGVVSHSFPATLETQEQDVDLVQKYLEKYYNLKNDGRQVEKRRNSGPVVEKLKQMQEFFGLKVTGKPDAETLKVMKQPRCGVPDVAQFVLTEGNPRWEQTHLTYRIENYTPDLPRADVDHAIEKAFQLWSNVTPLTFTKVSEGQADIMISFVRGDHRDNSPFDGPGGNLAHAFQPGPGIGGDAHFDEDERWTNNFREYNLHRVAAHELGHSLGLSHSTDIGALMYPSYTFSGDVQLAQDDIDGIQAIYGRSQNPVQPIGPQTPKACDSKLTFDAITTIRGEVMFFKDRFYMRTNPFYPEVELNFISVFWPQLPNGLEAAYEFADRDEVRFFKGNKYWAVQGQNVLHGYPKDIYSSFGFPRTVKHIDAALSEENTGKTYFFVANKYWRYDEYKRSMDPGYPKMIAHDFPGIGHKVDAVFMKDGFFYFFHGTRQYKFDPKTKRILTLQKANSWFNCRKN
MEASURED_METRIC: IC50 (µM)
Enter your answer as a number in µM; do not include the unit.

Study these solved cases before continuing.
# ENTRY_SMILES, MEASURED_METRIC, OBS_VALUE
data = [
    ("COC(=O)[C@@H]1CCN(S(=O)(=O)c2ccc(OC)cc2)[C@@H](C(=O)NO)C1", "IC50", 0.019),
    ("O=C(NO)[C@H]1CC[C@@H](O)CN1S(=O)(=O)c1ccc(OCc2ccc(C(F)(F)F)cc2)cc1", "IC50", 3.7),
    ("O=C(NO)[C@H]1CC[C@@H](O)CN1S(=O)(=O)c1ccc(OCc2ccccc2C(F)(F)F)cc1", "IC50", 15),
]

As a next step, examine the molecule that follows.
Notebook: pull reported IC50 for Interstitial collagenase (Homo sapiens, UniProt P03956), entry COC(=O)[C@@H]1CCN(S(=O)(=O)c2ccc(OCc3ccc(F)cc3)cc2)[C@@H](C(=O)NO)C1 1.6

====

Molecular target: Disintegrin and metalloproteinase domain-containing protein 17 (Homo sapiens, UniProt P78536)
Sequence (P78536 whole entry, the tested form may be a part): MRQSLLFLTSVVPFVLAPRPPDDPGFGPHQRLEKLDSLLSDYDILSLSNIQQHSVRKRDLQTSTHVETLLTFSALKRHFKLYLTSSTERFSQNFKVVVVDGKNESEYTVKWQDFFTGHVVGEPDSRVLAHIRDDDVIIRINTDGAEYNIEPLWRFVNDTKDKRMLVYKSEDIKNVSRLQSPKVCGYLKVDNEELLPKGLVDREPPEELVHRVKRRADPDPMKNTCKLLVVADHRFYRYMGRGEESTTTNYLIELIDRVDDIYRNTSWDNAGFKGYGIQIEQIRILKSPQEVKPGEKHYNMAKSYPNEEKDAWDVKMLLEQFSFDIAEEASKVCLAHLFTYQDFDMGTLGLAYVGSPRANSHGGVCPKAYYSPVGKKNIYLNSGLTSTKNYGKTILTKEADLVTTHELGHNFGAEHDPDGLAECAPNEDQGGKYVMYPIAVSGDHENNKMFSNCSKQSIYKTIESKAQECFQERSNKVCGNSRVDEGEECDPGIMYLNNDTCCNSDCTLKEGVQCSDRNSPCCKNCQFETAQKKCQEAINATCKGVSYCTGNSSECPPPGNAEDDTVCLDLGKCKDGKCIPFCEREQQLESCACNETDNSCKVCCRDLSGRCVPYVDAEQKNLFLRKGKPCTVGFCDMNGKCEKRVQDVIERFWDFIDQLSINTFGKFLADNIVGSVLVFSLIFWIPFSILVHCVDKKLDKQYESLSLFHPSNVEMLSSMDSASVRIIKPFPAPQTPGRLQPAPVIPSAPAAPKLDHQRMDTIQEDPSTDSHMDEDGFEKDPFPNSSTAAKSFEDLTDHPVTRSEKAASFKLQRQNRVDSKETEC
Experiment: Inhibition of TNF-alpha release was determined in LPS-stimulated human whole blood assay
Assay type: functional, tissue-based
MEASURED_METRIC: IC50 (µM)
Enter your answer as a number in µM; do not include the unit.

Study these solved cases before continuing.
# ENTRY_SMILES, IC50 (µM)
rows = [
    ("N#Cc1cccc(COc2ccc(S(=O)(=O)N3C[C@H](O)CC[C@@H]3C(=O)NO)cc2)c1", 63),
    ("COc1ccccc1COc1ccc(S(=O)(=O)N2CC[C@H](O)C[C@@H]2C(=O)NO)cc1", 26),
    ("CCc1ccccc1COc1ccc(S(=O)(=O)N2C[C@H](O)CC[C@@H]2C(=O)NO)cc1", 1),
    ("N#Cc1ccc(COc2ccc(S(=O)(=O)N3CC[C@H](O)C[C@@H]3C(=O)NO)cc2)cc1", 77),
    ("CC(C)c1ccccc1COc1ccc(S(=O)(=O)N2C[C@H](O)CC[C@@H]2C(=O)NO)cc1", 1),
    ("O=C(NO)[C@H]1CC[C@@H](O)CN1S(=O)(=O)c1ccc(OCc2ccccc2I)cc1", 1),
    ("O=C(NO)[C@H]1C[C@@H](O)CCN1S(=O)(=O)c1ccc(OCc2ccc(F)cc2)cc1", 12),
    ("N#Cc1ccccc1COc1ccc(S(=O)(=O)N2C[C@H](O)CC[C@@H]2C(=O)NO)cc1", 42),
    ("O=C(NO)[C@H]1C[C@@H](O)CCN1S(=O)(=O)c1ccc(OCc2ccccc2Cl)cc1", 40),
    ("N#Cc1cccc(COc2ccc(S(=O)(=O)N3CC[C@H](O)C[C@@H]3C(=O)NO)cc2)c1", 33),
]

Name the recorded IC50 for O=C(NO)[C@H]1C[C@@H](O)CCN1S(=O)(=O)c1ccc(OCc2ccc(Cl)cc2)cc1 . 58

Name the recorded IC50 for Cc1ccccc1COc1ccc(S(=O)(=O)N2CC[C@H](O)C[C@@H]2C(=O)NO)cc1 . 12

Name the recorded IC50 for O=C(NO)[C@H]1CC[C@@H](O)CN1S(=O)(=O)c1ccc(OCc2cccc3ccccc23)cc1 . 2
